Test: AUC in rat at […], iv
Assay type: ADME, organism-based
Set-up: dose 3.3 mg/kg, route intravenous
Conditions: plasma
Measure: AUC (µM·h)
I only need the number, in µM·h, no unit after it.

Q: Give the value of AUC reported for the following: C#CCN1C[C@H](C(=O)NO)[C@H](NC(=O)c2ccc(OCc3cc(C)nc4ccccc34)cc2)C1
A: 2.23

###

Assay: AUC in rat at 5.0 mg/kg, po
Format: ADME, organism-based
Design: dose 5 mg/kg, route oral
Settings: plasma
Measure: AUC

Q: Give the value of AUC reported for the following: Cc1cc(COc2ccc(C(=O)N[C@@H]3COC[C@@H]3C(=O)NO)cc2)c2ccccc2n1
A: 0.846 µM·h

###

Assay: AUC in rat at […], po
Type: ADME, organism-based
Design: dose 3.3 mg/kg, route oral
Conditions: plasma
Measure: AUC (µM·h)
I only need the number, in µM·h, no unit after it.

Q: Give the value of AUC reported for the following: C#CCN1C[C@H](C(=O)NO)[C@H](NC(=O)c2ccc(OCc3cc(C)nc4ccccc34)cc2)C1
A: 0.567

###

Experiment: Oral bioavailability in rat at […]
Type: ADME, organism-based
Details: in vivo
Measure: bioavailability (%)
I only need the number, in %, no unit after it.

Q: Give the value of bioavailability reported for the following: C#CCN1C[C@H](C(=O)NO)[C@H](NC(=O)c2ccc(OCc3cc(C)nc4ccccc34)cc2)C1
A: 25

###

Experiment: Half life in rat at […], po
Type: ADME, organism-based
Set-up: dose 3.3 mg/kg, route oral
Conditions: in vivo
Measure: half-life (h)
I only need the number, in h, no unit after it.

Q: Give the value of half-life reported for the following: C#CCN1C[C@H](C(=O)NO)[C@H](NC(=O)c2ccc(OCc3cc(C)nc4ccccc34)cc2)C1
A: 3.1

###

Experiment: AUC in rat at 5.0 mg/kg, iv
Format: ADME, organism-based
Set-up: dose 5 mg/kg, route intravenous
Conditions: plasma
Measure: AUC (µM·h)
I only need the number, in µM·h, no unit after it.

Q: Give the value of AUC reported for the following: Cc1cc(COc2ccc(C(=O)N[C@@H]3COC[C@@H]3C(=O)NO)cc2)c2ccccc2n1
A: 4.06

###

Experiment: Half life in rat at 5.0 mg/kg, iv
Type: ADME, organism-based
Set-up: dose 5 mg/kg, route intravenous
Settings: in vivo
Measure: half-life (h)
I only need the number, in h, no unit after it.

Q: Give the value of half-life reported for the following: Cc1cc(COc2ccc(C(=O)N[C@@H]3COC[C@@H]3C(=O)NO)cc2)c2ccccc2n1
A: 2.1

###

Test: Clearance in rat at 5.0 mg/kg, iv
Type: ADME, organism-based
Parameters: dose 5 mg/kg, route intravenous
Settings: in vivo
Measure: clearance
The reply should consist of the numeric value with the unit placed after it.

Q: Give the value of clearance reported for the following: Cc1cc(COc2ccc(C(=O)N[C@@H]3COC[C@@H]3C(=O)NO)cc2)c2ccccc2n1
A: 38.3 mL/min/kg

###

Assay: Oral bioavailability in rat at 5.0 mg/kg
Format: ADME, organism-based
Conditions: in vivo
Measure: bioavailability (%)
I only need the number, in %, no unit after it.

Q: Give the value of bioavailability reported for the following: Cc1cc(COc2ccc(C(=O)N[C@@H]3COC[C@@H]3C(=O)NO)cc2)c2ccccc2n1
A: 21

###

Test: Oral bioavailability in rat
Type: ADME, organism-based
Conditions: in vivo
Measure: bioavailability (%)
I only need the number, in %, no unit after it.

Q: Give the value of bioavailability reported for the following: Cc1cc(COc2ccc(C(=O)N[C@@H]3CN(S(C)(=O)=O)C[C@@H]3C(=O)NO)cc2)c2ccccc2n1
A: 3

###

Assay: Clearance in rat at […], iv
Format: ADME, organism-based
Set-up: dose 3.3 mg/kg, route intravenous
Conditions: in vivo
Measure: clearance
The reply should consist of the numeric value with the unit placed after it.

Q: Give the value of clearance reported for the following: C#CCN1C[C@H](C(=O)NO)[C@H](NC(=O)c2ccc(OCc3cc(C)nc4ccccc34)cc2)C1
A: 55 mL/min/kg

###

Assay: Half life in rat at […], iv
Assay type: ADME, organism-based
Set-up: dose 3.3 mg/kg, route intravenous
Conditions: in vivo
Measure: half-life (h)
I only need the number, in h, no unit after it.

Q: Give the value of half-life reported for the following: C#CCN1C[C@H](C(=O)NO)[C@H](NC(=O)c2ccc(OCc3cc(C)nc4ccccc34)cc2)C1
A: 2.9

###

Assay: Volume of distribution at steady state in rat at […], iv
Type: ADME, organism-based
Set-up: dose 3.3 mg/kg, route intravenous
Settings: in vivo, read-out: Vdss
Measure: Vd

Q: Give the value of Vd reported for the following: C#CCN1C[C@H](C(=O)NO)[C@H](NC(=O)c2ccc(OCc3cc(C)nc4ccccc34)cc2)C1
A: 1.7 L/kg
